For each of the molecules below, state its MIC.
Tested on: Staphylococcus aureus
test_summary: Antibacterial activity against Staphylococcus aureus SA-1199B norA++ and A116E GrlA mutation by microdilution technique
Assay type: functional
Write the answer as a number in µg/mL, unit excluded.

Query string: What MIC value was documented for this molecule, Cc1c(N2CCC3=C(C2)/C(=N/O)C(C)CS3)c(N)cc2c(=O)c(C(=O)O)cn(C3CC3)c12 (stereo not given) ?
Result string: 1.25

Query string: Name the recorded MIC for CC1CSC2=C(CN(c3cc4c(cc3F)c(=O)c(C(=O)O)cn4C3CC3)CC2)C1=O (stereo not given) .
Result string: 0.16

Query string: Value lookup for MIC; key = `Cc1c(N2CCC3=C(C2)/C(=N/O)CCS3)c(N)cc2c(=O)c(C(=O)O)cn(C3CC3)c12`
Result string: 2.5

Query string: Given the molecule `Nc1cc2c(=O)c(C(=O)O)cn(C3CC3)c2cc1N1CCC2=C(C1)C(=O)CCS2` , what is its reported MIC?
Result string: 25

Query string: Field request: MIC | item: CC1CSC2=C(CN(c3cc4c(cc3F)c(=O)c(C(=O)O)cn4C3CC3)CC2)/C1=N/O (stereo not given)
Result string: 0.31

Query string: Using the record for `Nc1cc2c(=O)c(C(=O)O)cn(C3CC3)c2cc1N1CCC2=C(C1)/C(=N/O)CCS2` , report its MIC.
Result string: 12.5

Query string: Can you look up the measured MIC of O=C(O)c1cn(C2CC2)c2cc(N3CCC4=C(C3)C(O)CCS4)c(F)cc2c1=O (stereo not given) for me?
Result string: 0.16

Query string: Query (molecule): `CO/N=C1\CCSC2=C1CN(c1cc3c(cc1N)c(=O)c(C(=O)O)cn3C1CC1)CC2` ; field requested: MIC
Result string: 12.5
